Below, each entry is listed with its recorded kon.
biological target: T1, natural Fel d1 (Indoor Biotech, #NA-FD1-2) (cat, UniProt P30438 23-92; P30440 18-109); assay: SPR (Biacore), mAb captured, natural Fel d1 injected, 25 C;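 also: rate constants obtained by fitting association and dissociation phases to a one-to-one binding model, with Kd and half-life derived from those rate constants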
T1 construct: Bought natural heterodimeric glycoprotein, chains linked by disulfide bonds; also called nFel d1; nFel d 1
T1 sequence (P30438 other isoform, or with tags, fused parts or gaps, chain 1 of 2): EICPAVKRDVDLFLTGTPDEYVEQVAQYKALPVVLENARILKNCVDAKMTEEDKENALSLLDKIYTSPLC
T1 sequence (P30440 18-109, chain 2 of 2): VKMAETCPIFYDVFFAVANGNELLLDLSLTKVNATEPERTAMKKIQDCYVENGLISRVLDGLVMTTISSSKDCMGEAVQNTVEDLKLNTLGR

{"Binder": "H4H2797P (antibody, human IgG4, V domains shown, human IgG4 Fc (H4H prefix)) VH: QVQLVESGGGVVLPGRSLRLSCAASGFTFSSYLMYWVRQAPGKGLEWVAVIWYDGSNKFYGDSVKGRFTISRDNSKNTLYLQMNSLRAEDTAVYYCARDNGNSGYEDSWNAFDIWGQGTMVTVSS VL: DIQMTQSPSSLSASVGDRVTITCRASQDIYNYLAWFQQKPGKAPKSLIYAASSLQTGVPSQFSGSGSGTDFTLTISSLQPEDFATYYCQQYNNYPFTFGPGTKVDIK", "kon (M⁻¹ s⁻¹)": 202000}
{"Binder": "H4H2597B (antibody, human IgG4, V domains shown, human IgG4 Fc (H4H prefix)) VH: EVQLVESGGGLVQPGGSLRLSCAVSGFTFSNYAMNWVRQAPGKGLEWVSVISDSGRSTYYADSVKGRFTISRDNSKNTLYLQMNSLRAEDTAVYFCAKRYNWNLHYFDYWGQGTTVTVSS VL: EIVLTQSPDFQSVTPKEKVTITCRASQSIGGSLHWYQQKPDQSPKLLIKYASQSFSGVPSRFSGSGSGTDFTLTINSLEAEDAATYYCLQSSSLRTFGQGTKVEIKR", "kon (M⁻¹ s⁻¹)": "2.31e+06"}
{"Binder": "H1M1230N (antibody, V domains shown, chimeric: human variable domains, mouse constant domains (H1M prefix, mouse Fc)) VH: EVQLVESGGGLVQPGGSLRLSCTASGFIFSNFWMTWVRQAPGKGLEWVANIKQDGSETYCVDSVKGRFTISRDHAKNSLFLQMNSLRAEDTAVYYCARGAGTIYYYGMDVWGQGTTVIVSS VL: DIQMTQSPSSVSASVGDRLTITCRASQDISSWLTWYQQKPGKAPNLLIYAASGLQSGVPSRFSGSGSGTDFTLTISNLQPEDFATYYCQQANSFPLTFGQGTRLEIK", "kon (M⁻¹ s⁻¹)": 258000}

Reference source for all entries: patent US20220025029A1
